B1: HDV Ribozyme (parent)
chain: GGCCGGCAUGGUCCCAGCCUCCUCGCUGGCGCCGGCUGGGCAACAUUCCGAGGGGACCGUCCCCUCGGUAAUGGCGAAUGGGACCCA

Variants of: B1
Run Description: self-cleavage, relative activity (ratio to wild type); higher = more cleavage; co-transcriptional
Measurement Label: self-cleavage

[[record]]
mutant_label = "C33G A87C"
measured_result = 0.0839

[[record]]
mutant_label = "G38U A42G"
measured_result = 0

[[record]]
mutant_label = "A8G A56G"
measured_result = 0.719

[[record]]
mutant_label = "U20A"
measured_result = 0.0723

[[record]]
mutant_label = "C18U G39U"
measured_result = 0.0997

[[record]]
mutant_label = "G11A A71U"
measured_result = 0.229

[[record]]
mutant_label = "G53C C84U"
measured_result = 0.712

[[record]]
mutant_label = "G11C G31U"
measured_result = 0.0482

[[record]]
mutant_label = "C33G C84G"
measured_result = 0.0489

[[record]]
mutant_label = "G2U G50U"
measured_result = 0

[[record]]
mutant_label = "C64G G81A"
measured_result = 0.222

